- System: SF-268 CNS
- experimental_protocol: NCI-60 one-dose screen, 48 h
- particulars: 10 µM unless noted
About 83,000 compounds went through this panel and 20% of them were active in at least one assay; those are over-represented in the sample as a whole. The source made the active and inactive calls. How the source made its calls: active means growth percent below 10; inactive means the rest.
Returns: one label drawn from active, inactive

CC12CCC=CC1CCC1C2CCC2(C)C(c3ccc(=O)oc3)CCC12O (stereo not given) = active
O=C(O)C(O)C(O)C1[O][Sb]([c]2ccc([N+](=O)[O-])cc2)[O]C1CO (stereo not given) = inactive
Nc1ccc2c(c1)oc1ccccc12 = inactive

-- ask I would be grateful if you could indicate the recorded call for CO[C@H](C(=O)O)[C@@H]1Cc2cc3cc(OC4CC(OC5CC(O)C(O)C(C)O5)C(O)C(C)O4)c(C)c(O)c3c(O)c2C(=O)[C@H]1OC1CC(OC2CC(OC3CC(C)(O)C(O)C(C)O3)C(O)C(C)O2)C(O)C(C)O1 (stereo not given in full) .
-- reply inactive

-- ask # fetch the recorded call for "C=COC(=O)CCN1CC1" here
-- reply inactive

-- ask Field: outcome | Entry: "Fc1cccc(NCOOC2(OOCNc3cccc(F)c3)CCCCC2)c1"
-- reply inactive

-- ask Identify the outcome logged in this assay for the compound shown: "Cc1cnc(/C=C/C(=O)O)cc1-c1cc2c(cc1C)C(C)(C)CCC2(C)C"
-- reply inactive

-- ask Please let me know the test result on file for "CC(=O)O[C@H](C[C@H](C(C)C)N(C)C(=O)[C@@H](NC(=O)[C@H]1CCCCN1C)C(C)(C)C)c1nc(C(=O)N[C@@H](Cc2ccccc2)C[C@H](C)C(=O)O)cs1" .
-- reply inactive

-- ask // param item: "c1ccc(CSC(c2ccccc2)c2ccccc2)cc1" ; yields the recorded call
-- reply inactive

-- ask Could you check what this test reported for "C[n+]1c(/C=C/c2ccc(N(CCCl)CCCl)cc2)sc2ccccc21" ?
-- reply inactive
